Where do these numbers come from? They come from ChEMBL document CHEMBL4808148.

biological target: Protein deacetylase HDAC6 (Homo sapiens) (UniProt Q9UBN7); conditions: at 10 µM
About 390 (7%) of roughly 5,600 compounds showed an effect of 50% or more. The sample as a whole holds a higher share of strong results than the screen did.
Decide using inhibition: a value greater than or equal to 20% is yes (1), a smaller one is no (0).

Below, 3 molecules whose answers are already recorded.
NC(=O)OC[C@@H]1[C@H](NC(=O)/C(=N\OCC(=O)O)c2csc(N)n2)C(=O)N1S(=O)(=O)O: no (0)
CC(C)C(=O)c1ccc(O)c(O)c1: no (0)
CN[C@@H]1[C@@H](O)[C@H](O[C@@H]2[C@@H](O)[C@H](O[C@H]3O[C@H](CN)[C@@H](O)[C@H](O)[C@H]3O)[C@@H](N)C[C@H]2NC(=O)[C@@H](O)CN)OC[C@]1(C)O: no (0)

Does the reported inhibition for Cc1coc2c1C(=O)C(=O)c1c-2ccc2c(C)cccc12 fall at or above the 20% mark?
yes (1)

Check this molecule for inhibition at or above 20%: O=c1[nH]cnc2c1cnn2[C@@H]1O[C@H](CO)[C@@H](O)[C@H]1O
yes (1)

###

# key: entry, value: inhibition
target: Protein deacetylase HDAC6 (Homo sapiens) (UniProt Q9UBN7); conditions: at 10 µM
Hit rate of the full screen: of about 5,600 compounds, about 390 (7%) showed an effect of 50% or more. Only a selection was taken, and strong results are over-represented in it overall.

COc1ccc(C(=O)/C(Br)=C/C(=O)O)cc1: -2.93%
Cn1nnc(-c2ccc(-c3ccc(N4C[C@H](CO)OC4=O)cc3F)cn2)n1: 67.9%

If you can, please state the reported inhibition value of CCC(C)C(CC)C(N)=O (stereo not given) .
2.6%

Need inhibition of CCC[C@@H](NC(=O)N1C(=O)C(CC)(CC)[C@@H]1Oc1ccc(C(=O)N2CCN(C)CC2)cc1)c1ccc2c(c1)OCO2 , thanks.
9.19%

Would you mind telling me what inhibition value was observed for CN1CCN(c2ccc(Nc3ncc4cc(C#N)c(=O)n(C5CCCC5)c4n3)cc2)CC1 ?
-8.66%

###

Target: Protein deacetylase HDAC6 (Homo sapiens) (UniProt Q9UBN7)
Sequence (whole entry): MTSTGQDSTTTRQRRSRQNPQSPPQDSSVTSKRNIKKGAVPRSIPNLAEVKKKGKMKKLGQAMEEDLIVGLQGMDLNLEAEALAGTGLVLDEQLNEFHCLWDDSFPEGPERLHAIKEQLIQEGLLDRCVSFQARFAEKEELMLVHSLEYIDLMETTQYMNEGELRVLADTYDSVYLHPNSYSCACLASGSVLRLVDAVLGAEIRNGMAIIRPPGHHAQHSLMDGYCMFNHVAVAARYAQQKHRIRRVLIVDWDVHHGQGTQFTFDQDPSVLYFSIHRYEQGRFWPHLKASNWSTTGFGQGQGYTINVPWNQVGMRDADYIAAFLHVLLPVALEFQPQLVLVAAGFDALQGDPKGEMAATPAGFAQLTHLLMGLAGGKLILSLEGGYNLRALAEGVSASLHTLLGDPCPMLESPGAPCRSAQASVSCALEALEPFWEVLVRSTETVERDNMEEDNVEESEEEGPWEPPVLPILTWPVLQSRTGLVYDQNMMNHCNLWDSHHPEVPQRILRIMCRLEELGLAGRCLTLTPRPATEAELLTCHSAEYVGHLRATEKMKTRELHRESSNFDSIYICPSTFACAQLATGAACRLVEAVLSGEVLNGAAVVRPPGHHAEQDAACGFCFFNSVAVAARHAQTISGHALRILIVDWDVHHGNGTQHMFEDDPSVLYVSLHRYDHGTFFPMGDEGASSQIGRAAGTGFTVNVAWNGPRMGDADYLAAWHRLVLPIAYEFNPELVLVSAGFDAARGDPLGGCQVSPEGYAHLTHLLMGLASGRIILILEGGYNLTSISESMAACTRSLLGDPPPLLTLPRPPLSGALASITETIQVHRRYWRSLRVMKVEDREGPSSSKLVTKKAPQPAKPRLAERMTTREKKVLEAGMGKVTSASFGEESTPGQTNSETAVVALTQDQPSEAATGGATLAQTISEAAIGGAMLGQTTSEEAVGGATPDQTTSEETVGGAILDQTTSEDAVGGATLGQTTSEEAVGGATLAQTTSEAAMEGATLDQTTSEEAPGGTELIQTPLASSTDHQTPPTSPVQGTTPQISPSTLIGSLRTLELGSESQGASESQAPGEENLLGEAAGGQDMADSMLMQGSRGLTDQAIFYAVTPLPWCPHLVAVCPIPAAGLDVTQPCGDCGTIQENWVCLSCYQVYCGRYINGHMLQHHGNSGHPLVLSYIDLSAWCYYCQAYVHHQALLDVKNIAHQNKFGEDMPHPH
Details: at 10 µM
The campaign covered roughly 5,600 compounds. About 390 (7%) showed an effect of 50% or more. The full list was thinned out, with strong results kept by preference.
Assign class by inhibition: not lower than 10% means Satisfied; lower than 10% means Not satisfied.

N#Cc1ccncn1: Not satisfied
COc1ccc(C(=O)c2ccccc2O)c(O)c1: Not satisfied
Cc1cc(C)c(/C=C2\C(=O)Nc3ccccc32)[nH]1: Satisfied
O=C(Cn1ccnc1[N+](=O)[O-])NCc1ccccc1: Satisfied
CC(=O)/N=c1/[nH]c(C)c(-c2ccc(Cl)c(S(=O)(=O)NCCO)c2)s1: Satisfied
CN1c2c([nH]c(N)nc2=O)NC[C@@H]1CNc1ccc(C(=O)N[C@@H](CCC(=O)O)C(=O)O)cc1: Satisfied
Cc1ccc(-c2ncn(-c3ccc(Nc4nccc(-c5cccc(N6CCOCC6)c5)n4)cc3)n2)cn1: Not satisfied
N#CC(c1ccnc(OCc2ccc(CN3CCOCC3)cc2)n1)c1nc2ccccc2s1 (configuration not stated): Satisfied
COc1ccc(C(=O)NCc2ccc(OCCN(C)C)cc2)cc1OC: Not satisfied
N/C(=N\C(=O)c1nc(Cl)c(N)nc1N)NCc1ccccc1: Satisfied

Quick check: does Cc1ccc(C(=O)c2cc(O)c(O)c([N+](=O)[O-])c2)cc1 have inhibition greater than or equal to 10%?
Not satisfied

Record Oc1ccc(C(O)CNCCCCCCNCC(O)c2ccc(O)c(O)c2)cc1O (configuration not stated) ; criterion: inhibition no lower than 10%. Met?
Not satisfied

Is reported inhibition greater than or equal to 10% here: CCOC1O[C@H]([C@@H](COCc2ccccc2)OCc2ccccc2)[C@H](OCc2ccccc2)[C@H]1O (some centres not stated)
Satisfied

Say whether CCc1nc2ccc(Cl)cn2c1C(=O)NCc1ccc(N2CCC(c3ccc(OC(F)(F)F)cc3)CC2)cc1 shows inhibition of 10% or more.
Not satisfied
